Tested on: Rattus norvegicus
Settings: developmental; development
MEASUREMENT NAME: log10 NOAEL (log10 of the value in mg/kg-day)
Units before log transform: mg/kg-day; reported quantity: NOAEL; transform: log10.

Solved entries (count: 4):
>  <COMPOUND>
CCN(CC)C(=O)SCc1ccc(Cl)cc1

>  <TESTED ON>
Rattus norvegicus

>  <MEASUREMENT NAME>
log10 NOAEL

>  <TEST RESULT>
1.40

$$$$
>  <COMPOUND>
S=C1NCCN1 [4,5-Dihydro-2-mercaptoimidazole]

>  <TESTED ON>
Rattus norvegicus

>  <MEASUREMENT NAME>
log10 NOAEL

>  <TEST RESULT>
0.70

$$$$
>  <COMPOUND>
COCC(=O)N(c1c(C)cccc1C)[C@H](C)C(=O)OC [Metalaxyl-M]

>  <TESTED ON>
Rattus norvegicus

>  <MEASUREMENT NAME>
log10 NOAEL

>  <TEST RESULT>
1.70

$$$$
>  <COMPOUND>
C=CC1(C)OC(=O)N(c2cc(Cl)cc(Cl)c2)C1=O (stereo not given)

>  <TESTED ON>
Rattus norvegicus

>  <MEASUREMENT NAME>
log10 NOAEL

>  <TEST RESULT>
0.78

$$$$

We next turn to a different compound, shown below.
log10 NOAEL measured on CC12CC1(C)C(=O)N(c1cc(Cl)cc(Cl)c1)C2=O (stereo not given) = 0.54

====

Entries and their NOAEL
System: Rattus norvegicus
Details: acute
Kindly provide the numeric value in mg/kg-day only, without the unit symbol.

>  <COMPOUND>
CCOP(=S)(OCC)SCCSCC [Disulfoton]

>  <NOAEL / mg/kg-day>
0.3

$$$$
>  <COMPOUND>
OC(c1ccc(Cl)cc1)(c1ccc(Cl)cc1)C(Cl)(Cl)Cl [Dicofol]

>  <NOAEL / mg/kg-day>
15

$$$$
>  <COMPOUND>
CCOP(=S)(OCC)SCSC(C)(C)C [Terbufos]

>  <NOAEL / mg/kg-day>
0.2

$$$$
>  <COMPOUND>
COC(=O)N(C(=O)N1CO[C@@]2(C(=O)OC)Cc3cc(Cl)ccc3C2=N1)c1ccc(OC(F)(F)F)cc1 [Indoxacarb]

>  <NOAEL / mg/kg-day>
12.5

$$$$
>  <COMPOUND>
CCNc1nc(Cl)nc(NCC)n1 [Simazine]

>  <NOAEL / mg/kg-day>
2.5

$$$$
>  <COMPOUND>
CCCSP(=O)(OCC)Oc1ccc(Br)cc1Cl (stereo not drawn) [Profenofos]

>  <NOAEL / mg/kg-day>
100

$$$$
>  <COMPOUND>
CCOP(=S)(OCC)SCSCC [Phorate]

>  <NOAEL / mg/kg-day>
0.3

$$$$

We next turn to a different compound, shown below.
NOAEL measured on CCOP(=S)(OCC)Oc1ccc([N+](=O)[O-])cc1 [Parathion] = 0.5

====

Tested on: Oryctolagus sp.
Conditions: reproduction developmental
MEASUREMENT NAME: NOAEL (mg/kg-day)
Kindly provide the numeric value in mg/kg-day only, without the unit symbol.

Solved entries (count: 4):
>  <COMPOUND>
C1CC[CH]([Sn+]([CH]2CCCCC2)[CH]2CCCCC2)CC1.[OH-]

>  <TESTED ON>
Oryctolagus sp.

>  <UNITS LABEL>
mg/kg-day

>  <TEST RESULT>
2

$$$$
>  <COMPOUND>
CC1=C(C)S(=O)(=O)CCS1(=O)=O

>  <TESTED ON>
Oryctolagus sp.

>  <UNITS LABEL>
mg/kg-day

>  <TEST RESULT>
20

$$$$
>  <COMPOUND>
c1nc[n]([Sn]([CH]2CCCCC2)([CH]2CCCCC2)[CH]2CCCCC2)n1

>  <TESTED ON>
Oryctolagus sp.

>  <UNITS LABEL>
mg/kg-day

>  <TEST RESULT>
2

$$$$
>  <COMPOUND>
[OH-].c1cc[c]([Sn+]([c]2ccccc2)[c]2ccccc2)cc1 [Triphenyltin hydroxide]

>  <TESTED ON>
Oryctolagus sp.

>  <UNITS LABEL>
mg/kg-day

>  <TEST RESULT>
0.1

$$$$

We next turn to a different compound, shown below.
Here CC(Oc1ccc(Oc2ccc(Cl)cc2Cl)cc1)C(=O)O (centres undefined) was tested on Oryctolagus sp., and its NOAEL came to 3

====

Entries and their NOAEL
System: Oryctolagus sp.
Settings: reproduction developmental
Kindly provide the numeric value in mg/kg-day only, without the unit symbol.

Solved entries (count: 3):
>  <MOLECULE>
CC(=O)[O][Sn]([c]1ccccc1)([c]1ccccc1)[c]1ccccc1 [Triphenyltin acetate]

>  <UNITS LABEL>
mg/kg-day

>  <NOAEL>
0.1

$$$$
>  <MOLECULE>
CN/C(=N\[N+](=O)[O-])NCc1cnc(Cl)s1

>  <UNITS LABEL>
mg/kg-day

>  <NOAEL>
10

$$$$
>  <MOLECULE>
O=C(O)C1(C(=O)Nc2ccc(Cl)cc2Cl)CC1 [Cyclanilide]

>  <UNITS LABEL>
mg/kg-day

>  <NOAEL>
3

$$$$

We next turn to a different molecule, shown below.
NOAEL measured on "O=C(Nc1ccccc1)Nc1ccnc(Cl)c1" = 100
